study.target: cyclooxygenase-1 (Mus musculus)
Construct: endogenous in cells; host or cells: primary mouse peritoneal macrophages (unstimulated)
Sequence (P22437 27-602): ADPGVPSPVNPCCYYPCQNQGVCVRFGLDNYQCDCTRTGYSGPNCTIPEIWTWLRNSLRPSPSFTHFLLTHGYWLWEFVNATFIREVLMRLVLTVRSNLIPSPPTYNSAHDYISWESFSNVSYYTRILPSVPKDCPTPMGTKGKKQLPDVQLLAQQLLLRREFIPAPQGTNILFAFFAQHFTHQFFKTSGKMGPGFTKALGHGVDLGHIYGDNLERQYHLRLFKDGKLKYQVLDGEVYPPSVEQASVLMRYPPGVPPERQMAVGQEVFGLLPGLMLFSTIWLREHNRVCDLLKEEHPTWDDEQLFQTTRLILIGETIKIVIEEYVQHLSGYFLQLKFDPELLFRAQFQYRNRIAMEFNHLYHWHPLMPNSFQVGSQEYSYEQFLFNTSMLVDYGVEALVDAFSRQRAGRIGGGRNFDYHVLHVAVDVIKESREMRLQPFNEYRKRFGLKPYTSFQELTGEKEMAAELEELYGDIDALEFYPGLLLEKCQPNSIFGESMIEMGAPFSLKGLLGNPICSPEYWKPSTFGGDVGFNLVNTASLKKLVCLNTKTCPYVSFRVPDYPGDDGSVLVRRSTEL
assay.name: Inhibition of cyclooxygenase-1 in mouse peritoneal macrophages (PGE2 ELISA)
Type: cell-based
measurement.conditions: 10 μM
assay.metric: Inhibitory effects of cyclooxygenase (COX), COX-1 (% inhibition)

Cn1nc2c(c1-c1ccc(S(C)(=O)=O)cc1)-c1ccccc1CC2 [Example 10] ... 55.3
CS(=O)(=O)c1ccc(-c2[nH]nc3c2-c2ccccc2CC3)cc1 [Example 6] ... 57.3
CS(=O)(=O)c1ccc(/C=C2/C(=O)CCc3ccccc32)cc1 [Example 1] ... 40.7
CS(=O)(=O)c1ccc(C=C2/C(=N/OC(=O)COCc3ccccc3)CCc3ccccc32)cc1 [Example 9] ... 31.1
CS(=O)(=O)c1ccc(-c2onc3c2-c2ccccc2CC3)cc1 [Example 7] ... 44.1
